The measurements presented in this section are drawn from patent US20240148723A1.

System: M. tuberculosis
Assay type: cell-based, Mycobacterium tuberculosis
experimental.parameters: pH 6.8
Labelling field: enter 1 (yes) if recorded MIC in the media L-Ala is less than 4 mg/L. Enter 0 (no) if it equals or exceeds that cut-off.

molecule	group.label
CCC(C)(C)c1ccc(Oc2cccc(C(=O)O)c2)cc1	1 (yes)
COc1cccc2[nH]c(-c3ccccn3)nc12	0 (no)
C=CC(=O)Nc1cc(Nc2nccc(-c3cn(C)c4ccccc34)n2)c(OC)cc1N(C)CCN(C)C	1 (yes)
Sc1nc2cc(-c3ccccc3)ccc2o1	1 (yes)
COc1cc2c(cc1O)C[C@H]1c3c(cc4c(c3-2)OCO4)CCN1C	0 (no)

----------
Tested on: M. tuberculosis
Assay type: cell-based, Mycobacterium tuberculosis
experimental.parameters: pH 6.8
measured.property: MIC in the media L-Ala (µg/mL)

compound	unit	number
C1C2CC3C1C3/C2=N\N=C1/C2CC3C(C2)C13	µg/mL	1.38
CCOC(CNCc1cc(C)c2[nH]c3ccccc3c2c1C)OCC	µg/mL	8.51
Nc1ccc(N=Nc2ccc(O)cc2)c(N)n1	µg/mL	11.46
Cn1ccc(=Nc2ccc(NC(=O)c3ccc(N=c4ccn(C)c5ccc([N+](=O)[O-])cc45)cc3)cc2)cc1	µg/mL	0.81
Cc1ccc([S+]([O-])c2ccc([N+](=O)[O-])c3nonc23)cc1 (stereo not drawn)	µg/mL	7.58
CCOc1ccc(N=Nc2ccc(N)cc2N)cc1	µg/mL	3.20
CCC(C)c1occ2c(O)c(C(=O)O)c(=O)cc-2c1C (stereo not drawn)	µg/mL	27.63
OC(c1cc(-c2ccc(C(F)(F)F)cc2)nc(C(F)(F)F)c1)C1CCCCN1 (stereo not drawn)	µg/mL	1.25
COc1cc(N)c2ncccc2c1	µg/mL	8.71

----------
System: M. tuberculosis
Format: cell-based, Mycobacterium tuberculosis
experimental.parameters: pH 6.8
Classify: Met when MIC in the media L-Ala is strictly less than 4 µg/mL; Not met when MIC in the media L-Ala is not.

compound	group.label
O=C1c2cccc3cc([N+](=O)[O-])cc(c23)C(=O)N1CCN1CCCC1 [compound 300289]	Not met
N#CC(c1ccccc1)C(CC(=NO)c1ccccc1)c1ccccc1 (mixture of isomers) [compound 186200]	Not met
NC(=O)c1cccc([N+](=O)[O-])c1 [compound 37327]	Not met
Cc1cc(C(C#N)c2ccc(Cl)cc2)c(Cl)cc1NC(=O)c1cc(I)cc(I)c1O (stereo not drawn) [compound 335306]	Not met
Oc1c(Cl)cc(Cl)c2cccnc12 [compound 3904]	Met
COC12C(COC(N)=O)C3=C(C(=O)C(C)=C(N)C3=O)N1CC1C2N1C (stereo not drawn) [compound 56410]	Met
Cc1ccc(C)c(N2CCN(c3ccncc3N)CC2)c1 [compound 147866]	Not met
CCCCc1oc2ccccc2c1C(=O)c1cc(I)c(OCCN(CC)CC)c(I)c1.Cl [compound 85442]	Not met
O=C(c1ccc(F)c(F)c1Nc1ccc(I)cc1F)N1CC(O)(C2CCCCN2)C1 (stereo not drawn) [compound 768068]	Not met

----------
Tested on: M. tuberculosis
Format: cell-based, Mycobacterium tuberculosis
experimental.parameters: pH 6.8
I'd appreciate it if you marked entries Fulfilled when MIC in the media L-Ala is lower than 7 µg/mL and Not fulfilled when it is not.

compound	group.label
NC1(N2SC(S)=C3CCCC=C32)CCCCC1 [compound 327444]	Fulfilled
O=c1c(-c2ccc(O)cc2)coc2cc(O)cc(O)c12 [compound 36586]	Not fulfilled
CCOC(=O)CCCCCCCCCCCCC1C=CCC1 (centres unmarked) [compound 38010]	Fulfilled
CCCCCc1cc(O)cc2c1Oc1cc(O)cc(C(=O)CCCC)c1C(=O)O2 [compound 31867]	Fulfilled
O=[N+]([O-])c1ccc(Sc2cccc[n+]2[O-])c2nonc12 [compound 228155]	Fulfilled
C=C1C(=O)OC2CC1C(OC(C)=O)C/C(C)=C/CC/C(C)=C\CCC2(C)O (centres unmarked) [compound 46728]	Not fulfilled
O=c1[nH]c(=S)[nH]cc1Oc1ccc(Cl)cc1Cl [compound 73753]	Not fulfilled
COC(C(=O)C(O)C(C)O)C1Cc2cc3cc(OC4CC(OC(C)=O)C(OC5CC(O)C(OC)C(C)O5)C(C)O4)cc(O)c3c(O)c2C(=O)C1OC1CC(OC2CC(OC3CC(C)(O)C(OC(=O)C(C)C)C(C)O3)C(O)C(C)O2)C(O)C(C)O1 (centres unmarked) [compound 38270]	Not fulfilled
CN(CC(=O)O)Cc1c(O)c(Cl)cc(Cl)c1Cl [compound 45114]	Not fulfilled
Oc1c(N=Nc2nn[nH]n2)ccc2ccccc12 [compound 338106]	Fulfilled
c1ccc(Sc2ncnc3ccccc23)cc1 [compound 51331]	Not fulfilled
Oc1ccc(Cc2ccc(Cl)cc2)c(O)c1 [compound 11150]	Fulfilled
C=C1C(=O)OC2CC1C(OC(C)=O)C/C(C)=C/CC/C(C)=C\CCC2(C)O (centres unmarked) [compound 36437]	Not fulfilled
